Molecular target: SRC (Homo sapiens, UniProt P12931)
Construct: purchased Invitrogen
Sequence (P12931 whole entry): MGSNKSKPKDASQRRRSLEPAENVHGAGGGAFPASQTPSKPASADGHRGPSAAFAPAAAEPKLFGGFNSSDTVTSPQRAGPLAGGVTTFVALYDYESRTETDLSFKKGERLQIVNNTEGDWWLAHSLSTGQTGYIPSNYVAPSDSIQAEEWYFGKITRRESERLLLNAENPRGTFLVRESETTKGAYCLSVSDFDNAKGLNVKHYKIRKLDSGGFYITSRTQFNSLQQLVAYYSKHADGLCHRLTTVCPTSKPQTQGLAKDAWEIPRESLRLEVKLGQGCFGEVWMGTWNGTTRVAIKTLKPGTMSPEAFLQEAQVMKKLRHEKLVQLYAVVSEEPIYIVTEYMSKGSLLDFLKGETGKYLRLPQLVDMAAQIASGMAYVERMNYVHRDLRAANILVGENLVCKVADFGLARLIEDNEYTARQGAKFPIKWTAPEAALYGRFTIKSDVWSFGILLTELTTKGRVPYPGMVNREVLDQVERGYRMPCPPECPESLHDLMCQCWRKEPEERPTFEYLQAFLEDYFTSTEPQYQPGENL
Assay: In vitro kinase assay (Z'-LYTE, Invitrogen)
Assay type: biochemical
Conditions: compound at 100 nM, ATP Km apparent, read-out: % of inhibition of the kinase compared to the control
Description: The inhibitory activity of the compounds on 7 kinases (BRAF, EGFR (ErbB1), EGFR (ErbB1) T790M L858R, FGFR2, KDR (VEGFR2), PDGFRA (PDGFR alpha), SRC) was evaluated by Invitrogen using the Z′-LYTE® technology. Briefly, the Z′-LYTE® biochemical assay employs a fluorescence-based, coupled-enzyme format and is based on the differential sensitivity of phosphorylated and non-phosphorylated peptides to proteolytic cleavage. […]
MEASURE NAME: inhibition at 0.1 µM

# annotated cases, reported inhibition at 0.1 µM shown
COMPOUND: CC(=O)c1cc2cc(CCc3cc(NC(=O)c4ccc(CN5CCC(N(C)C)C5)c(C(F)(F)F)c4)ccc3C)cnc2[nH]1 (stereo not shown) [OR0798]
TARGET DESC: SRC (Homo sapiens, UniProt P12931)
inhibition at 0.1 µM: ≥ 50%
--
COMPOUND: COC(=O)c1cc2cc(COc3cc(NC(=O)c4ccc(CN5CCN(C)CC5)cc4)ccc3C)cnc2[nH]1 [OR0779]
TARGET DESC: SRC (Homo sapiens, UniProt P12931)
inhibition at 0.1 µM: ≥ 50%
--
COMPOUND: COC(=O)c1cc2cc(CNC(=O)c3cc(NC(=O)c4ccc(CN5CCN(C)CC5)cc4)ccc3C)cnc2[nH]1 [OR0730]
TARGET DESC: SRC (Homo sapiens, UniProt P12931)
inhibition at 0.1 µM: < 50%

Alright, here's another compound for you.
INPUT: Record request: inhibition at 0.1 µM value, item COC(=O)c1cc2cc(CCc3cc(NC(=O)C4CCC(C(F)(F)F)CC4)ccc3C)cnc2[nH]1 (stereo not shown) [OR1057]
OUTPUT: ≥ 50%

---

Biological target: BRAF (Homo sapiens)
Construct: purchased Invitrogen
Sequence (P15056 whole entry): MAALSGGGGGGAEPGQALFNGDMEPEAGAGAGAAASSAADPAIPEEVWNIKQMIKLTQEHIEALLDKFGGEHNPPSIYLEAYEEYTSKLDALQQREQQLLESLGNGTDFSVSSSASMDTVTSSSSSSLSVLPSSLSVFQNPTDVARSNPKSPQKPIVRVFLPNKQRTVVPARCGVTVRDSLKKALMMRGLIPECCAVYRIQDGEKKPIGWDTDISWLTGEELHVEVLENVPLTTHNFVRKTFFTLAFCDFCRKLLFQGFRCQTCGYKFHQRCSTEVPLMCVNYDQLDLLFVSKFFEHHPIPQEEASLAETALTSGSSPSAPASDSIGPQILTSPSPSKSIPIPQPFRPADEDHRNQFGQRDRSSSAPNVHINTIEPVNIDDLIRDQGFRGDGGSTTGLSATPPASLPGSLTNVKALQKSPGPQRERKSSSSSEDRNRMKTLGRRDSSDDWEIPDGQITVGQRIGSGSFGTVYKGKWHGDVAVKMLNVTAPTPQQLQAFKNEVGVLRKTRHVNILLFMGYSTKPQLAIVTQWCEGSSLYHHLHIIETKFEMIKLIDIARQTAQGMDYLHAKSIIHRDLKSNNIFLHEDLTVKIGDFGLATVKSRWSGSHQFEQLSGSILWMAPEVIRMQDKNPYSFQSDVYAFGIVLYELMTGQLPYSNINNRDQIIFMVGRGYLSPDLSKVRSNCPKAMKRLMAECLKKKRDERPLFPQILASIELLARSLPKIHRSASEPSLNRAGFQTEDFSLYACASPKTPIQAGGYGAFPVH
Test: In vitro kinase assay (Z'-LYTE, Invitrogen)
Format: biochemical
Details: compound at 100 nM, ATP Km apparent, read-out: % of inhibition of the kinase compared to the control
Provide the recorded inhibition at 0.1 µM for the entries that follow.

MOLECULE SMILES: COC(=O)c1cc2cc(CCc3cc(NC(=S)c4ccc(CN5CCN(C)CC5)cc4)ccc3C)cnc2[nH]1
TARGET DESC: BRAF (Homo sapiens)
RESULT: < 50%
--
MOLECULE SMILES: CC(=O)c1cc2cc(CCc3cc(NS(=O)(=O)c4cccc(C(F)(F)F)c4)ccc3C)cnc2[nH]1
TARGET DESC: BRAF (Homo sapiens)
RESULT: < 50%
--
MOLECULE SMILES: CC(=O)c1cc2cc(CCc3cc(NC(=O)c4ccc(CN5CCN(C)CC5)cc4)ccc3C)cnc2[nH]1
TARGET DESC: BRAF (Homo sapiens)
RESULT: ≥ 50%

Alright, here's another molecule for you.
INPUT: Lab request: please report inhibition at 0.1 µM under test system BRAF (Homo sapiens) for COC(=O)c1cc2cc(CSc3cccc(NC(=O)c4cccc(C(F)(F)F)c4)c3)cnc2[nH]1
OUTPUT: < 50%

---

Provide the recorded pEC50 for the entries that follow.
System: A549 cell line
Experiment: In vitro cell proliferation assay (MTT)
Format: cell-based
Conditions: Homo sapiens, A549, 72 h, EC50 ≧ 1 μM, read-out: EC50, anti-proliferative activity
pEC50: −log10 of the molar value.

# annotated cases, reported pEC50 shown
COMPOUND: COC(=O)c1cc2cc(NCCc3cccc(NC(=O)c4ccc(CN5CCN(C)CC5)c(C(F)(F)F)c4)c3)cnc2[nH]1 [OR1019]
RESULT: ≤ 6.00
//
COMPOUND: CC(=O)c1cc2cc(CCc3cc(NC(=O)Cc4cccc(C(F)(F)F)c4)ccc3C)cnc2[nH]1 [OR0966]
RESULT: ≤ 6.00
//
COMPOUND: COC(=O)c1cc2cc(CCc3cc(NC(=O)c4ccc(CN5CCC(N(C)C)C5)c(C(F)(F)F)c4)ccc3Cl)cnc2[nH]1 (stereo not shown) [OR1007]
RESULT: ≤ 6.00
//
COMPOUND: COC(=O)c1cc2cc(CCc3ccc(C)c(NC(=O)c4cc(-n5cnc(C)c5)cc(C(F)(F)F)c4)c3)cnc2[nH]1 [OR1068]
RESULT: ≤ 6.00
//
COMPOUND: COC(=O)c1cc2cc(CNc3cc(NC(=O)c4ccc(C)cc4)ccc3C)cnc2[nH]1 [OR0738]
RESULT: ≤ 6.00

Please give pEC50 for each item listed below.
1. COC(=O)c1cc2cc(CCc3ccc(C)c(NC(=O)c4ccc(CN5CCC(N(C)C)C5)c(C(F)(F)F)c4)c3)cnc2[nH]1 (stereo not shown) [OR1044]
2. COC(=O)c1cc2cc(CCc3cccc(CNC(=O)c4ccc(CN5CCN(C)CC5)c(C(F)(F)F)c4)c3)cnc2[nH]1 [OR1018]

OUTPUT:
1: ≤ 6.00; 2: ≤ 6.00

---

Biological target: KDR (VEGFR2) (Homo sapiens, UniProt P35968)
Construct: purchased Invitrogen
Sequence (P35968 20-1356): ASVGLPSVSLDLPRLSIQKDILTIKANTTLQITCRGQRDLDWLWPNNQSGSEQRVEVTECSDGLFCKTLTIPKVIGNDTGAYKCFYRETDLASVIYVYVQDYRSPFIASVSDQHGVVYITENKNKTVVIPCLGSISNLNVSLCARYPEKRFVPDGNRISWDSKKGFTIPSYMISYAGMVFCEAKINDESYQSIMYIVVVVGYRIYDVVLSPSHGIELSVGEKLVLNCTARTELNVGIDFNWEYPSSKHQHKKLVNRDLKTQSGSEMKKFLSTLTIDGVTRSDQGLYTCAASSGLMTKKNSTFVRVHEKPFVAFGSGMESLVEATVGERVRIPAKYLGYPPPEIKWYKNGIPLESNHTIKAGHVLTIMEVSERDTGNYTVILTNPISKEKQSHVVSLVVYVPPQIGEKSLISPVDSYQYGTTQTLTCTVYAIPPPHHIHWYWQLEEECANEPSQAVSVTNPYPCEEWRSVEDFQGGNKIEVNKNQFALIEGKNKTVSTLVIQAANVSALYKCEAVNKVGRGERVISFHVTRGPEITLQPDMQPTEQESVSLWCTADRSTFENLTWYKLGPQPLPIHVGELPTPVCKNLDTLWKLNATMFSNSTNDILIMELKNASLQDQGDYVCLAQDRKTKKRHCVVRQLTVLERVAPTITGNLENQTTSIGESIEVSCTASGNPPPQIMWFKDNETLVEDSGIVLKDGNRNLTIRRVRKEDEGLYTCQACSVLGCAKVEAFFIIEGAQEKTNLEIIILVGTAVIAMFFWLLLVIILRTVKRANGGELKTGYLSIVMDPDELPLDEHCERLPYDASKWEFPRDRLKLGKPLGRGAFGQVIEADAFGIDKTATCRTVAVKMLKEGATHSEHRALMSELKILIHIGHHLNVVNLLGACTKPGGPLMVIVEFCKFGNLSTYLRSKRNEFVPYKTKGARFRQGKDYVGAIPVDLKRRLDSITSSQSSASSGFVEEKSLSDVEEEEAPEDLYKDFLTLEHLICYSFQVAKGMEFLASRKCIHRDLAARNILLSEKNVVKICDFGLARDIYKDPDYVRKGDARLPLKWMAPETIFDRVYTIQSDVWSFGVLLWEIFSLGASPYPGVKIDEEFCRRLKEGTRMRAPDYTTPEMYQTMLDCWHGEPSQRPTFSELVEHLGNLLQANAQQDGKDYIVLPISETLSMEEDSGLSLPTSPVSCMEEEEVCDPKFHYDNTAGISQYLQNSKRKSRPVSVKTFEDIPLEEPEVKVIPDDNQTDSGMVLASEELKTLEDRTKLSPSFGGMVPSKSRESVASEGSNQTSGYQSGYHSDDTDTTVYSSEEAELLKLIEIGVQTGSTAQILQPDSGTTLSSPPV
Experiment: In vitro kinase assay (Z'-LYTE, Invitrogen)
Format: biochemical
Details: compound at 100 nM, ATP Km apparent, read-out: % of inhibition of the kinase compared to the control
MEASURE NAME: inhibition at 0.1 µM

MOLECULE: COC(=O)c1cc2cc(COc3cc(NC(=O)c4ccc(CN5CCN(C)CC5)cc4)ccc3C)cnc2[nH]1
RESULT: ≥ 50%
--
MOLECULE: CC(=O)c1cc2cc(CCc3cc(NC(=O)c4ccc(CN5CCC(N(C)C)C5)c(C(F)(F)F)c4)ccc3C)cnc2[nH]1 (stereo not drawn)
RESULT: ≥ 50%

Please give inhibition at 0.1 µM for each item listed below.
1. COC(=O)c1cc2cc(CCc3cc(NC(=O)c4ccc(CN5CCC(N(C)C)C5)c(C(F)(F)F)c4)ccc3Cl)cnc2[nH]1 (stereo not drawn)
2. COC(=O)c1cc2cc(C=Cc3cc(NC(=O)c4ccc(CN5CCN(C)CC5)c(C(F)(F)F)c4)ccc3C)cnc2[nH]1
3. COC(=O)c1cc2cc(CCc3cc(NC(=O)c4ccc(CN5CCN(C)CC5)c(C(F)(F)F)c4)ccc3Cl)cnc2[nH]1
4. COC(=O)c1cc2cc(CCc3cc(NC(=O)Nc4cccc(C(F)(F)F)c4)ccc3C)cnc2[nH]1

OUTPUT:
1. ≥ 50%
2. ≥ 50%
3. ≥ 50%
4. < 50%

Please give inhibition at 0.1 µM for each item listed below.
1. COC(=O)c1cc2cc(CCc3cccc(NC(=S)Cc4cccc(C(F)(F)F)c4)c3)cnc2[nH]1
2. CC(=O)c1cc2cc(CCc3cc(NC(=O)c4ccc(CN5CC[C@H](N(C)C)C5)c(C(F)(F)F)c4)ccc3C)cnc2[nH]1
3. Cc1ccc(NC(=O)c2ccc(CN3CCN(C)CC3)c(C(F)(F)F)c2)cc1CCc1cnc2[nH]c(C(=O)O)cc2c1
4. COC(=O)c1cc2cc(CCc3cc(NC(=O)c4ccc(CN5CCN(C)CC5)c(F)c4)ccc3C)cnc2[nH]1

OUTPUT:
["< 50%", "≥ 50%", "≥ 50%", "≥ 50%"]

Please give inhibition at 0.1 µM for each item listed below.
1. COC(=O)c1cc2cc(C=Cc3cc(NC(=O)c4ccc(CN5CCN(C)CC5)cc4)ccc3C)cnc2[nH]1
2. COC(=O)c1cc2cc(CCc3cc(NC(=O)c4ccc(CN5CCN(C)CC5)cc4)ccc3C)cnc2[nH]1
3. CC(=O)c1cc2cc(CCc3cc(NC(=O)c4cc(N5CCN(C)CC5)cc(C(F)(F)F)c4)ccc3C)cnc2[nH]1

OUTPUT:
≥ 50%
≥ 50%
≥ 50%

Please give inhibition at 0.1 µM for each item listed below.
1. COC(=O)c1cc2cc(CNc3cc(NC(=O)c4ccc(C)cc4)ccc3C)cnc2[nH]1
2. COC(=O)c1cc2cc(CCc3cccc(NC(=O)c4ccc(CN5CCC(N(C)C)C5)c(C(F)(F)F)c4)c3)cnc2[nH]1 (stereo not drawn)

OUTPUT:
< 50%
≥ 50%

---

Provide the recorded EC50 for the entries that follow.
Tested on: A549 cell line
Assay: In vitro cell proliferation assay (MTT)
Type: cell-based
Conditions: Homo sapiens, A549, 72 h, EC50 ≧ 1 μM, read-out: EC50, anti-proliferative activity
Method: Cancer cell lines (5×10^3 cells per well) or HUVEC (1×10^4 cells per well) or HRMEC (1×10^4 cells per well) were distributed in 96-well plates and incubating in duplicate with escalating concentrations (10 nM to 3 μM) of compounds for 72 hr. Cell proliferation was measured using MTT (3[4,5-dimethylthiazol-2-yl]-2,5-diphenyltetrazolium bromide). […]

MOLECULE: COC(=O)c1cc2cc(CCc3cc(NC(=O)C4CCC(C(F)(F)F)CC4)ccc3C)cnc2[nH]1 (stereo not drawn) [OR1057]
EC50: ≥ 1 µM
//
MOLECULE: CC(=O)c1cc2cc(CCc3cc(NC(=S)Nc4cccc(C(F)(F)F)c4)ccc3C)cnc2[nH]1 [OR1017]
EC50: ≥ 1 µM
//
MOLECULE: COC(=O)c1cc2cc(COc3cc(NC(=O)c4ccc(CN5CCC(N(C)C)C5)c(C(F)(F)F)c4)ccc3C)cnc2[nH]1 (stereo not drawn) [OR0750]
EC50: ≥ 1 µM
//
MOLECULE: CC(=O)c1cc2cc(CCc3cc(NC(=O)Nc4cccc(C(F)(F)F)c4)ccc3C)cnc2[nH]1 [OR0919]
EC50: ≥ 1 µM
//
MOLECULE: COC(=O)c1cc2cc(CSc3cccc(NC(=O)c4cccc(C(F)(F)F)c4)c3)cnc2[nH]1 [OR1066]
EC50: ≥ 1 µM

Please give EC50 for each item listed below.
1. COC(=O)c1cc2cc(C=Cc3cccc(C(=O)Nc4cccc(C(F)(F)F)c4)c3)cnc2[nH]1 [OR1046]
2. COC(=O)c1cc2cc(CNc3cc(NC(=O)c4ccc(CN5CCN(C)CC5)cc4)ccc3C)cnc2[nH]1 [OR0746]

OUTPUT:
1. ≥ 1 µM
2. ≥ 1 µM

Please give EC50 for each item listed below.
1. COC(=O)c1cc2cc(CCc3cccc(NC(=S)Cc4cccc(C(F)(F)F)c4)c3)cnc2[nH]1 [OR1014]
2. COC(=O)c1cc2cc(C=Nc3cc(NC(=O)c4ccc(CN5CCN(C)CC5)c(C(F)(F)F)c4)ccc3C)cnc2[nH]1 [OR1070]

OUTPUT:
["≥ 1 µM", "≥ 1 µM"]
